- Tested on: S. cerevisiae Mot1-301 ts growth rescue, BacTiter-Glo ATP luminescence
- procedure-summary: restored Mot1-301 yeast growth at 38.5C – whole organism, S. cerevisiae, Mot1-301 ts mutant, luminescence, dose retest, SUMOylation pathway inhibitor project, confirmation (AID 463204);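 further: growth at restrictive 38.5 degrees C of Mot1-301 OY566 strain; actives raise luminescence by restoring growth of the ts mutant at high temperature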
Calls of active or inactive are those of the source.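 How the source made its calls: active means AC50 no more than ten times the top concentration tested, that is within one log above it; inconclusive means flat curve fit with activity between 30% and 70%, or invalid poor fit; inactive means AC50 beyond ten times the top tested dose.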
Here, each record is paired with measured AC50 data.
reported-metric: AC50

compound=O=S1(=O)C=C(Sc2nnc(-c3ccccc3)o2)c2ccccc21 test_value="1.47 µM"
compound="CCCNCC(O)COc1ccccc1C(=O)CCc1ccccc1 (stereo not drawn)" test_value="> 42 µM (inactive)"
compound=Cc1cccc(OCCN2CSC(=S)N(C)C2)c1 test_value="3.7 µM"
